assay: growth inhibition of yeast control strain, primary screen, counter-screen for post-Golgi transport modulator project (AID 738); details: efflux-deficient yeast background strain, growth absorbance A615, 16 h; at 10 µM
Hit rate of the full screen: of about 98,000 compounds, about 4,900 (5%) were called active. Cut-off read from the data, not from the text of the source: active = inhibition above about 30%; inactive = the rest. This is one part of a sample in which actives are shown more often than they occur.
Allowed answers: active, inactive

Sample answers from the record:
compound	answerLabel
CCN(CC)c1ccc(NC(=O)c2ccc(Cl)nc2)cc1	inactive
COc1ccc(NC(C)=O)cc1NC(=O)CN1CCN(c2ccccn2)CC1	inactive

Tell me the assay call for CCN(CC)C(=O)CSc1nnc(CNc2ccc(F)cc2)n1Cc1ccco1 please. inactive

Tell me the assay call for CCOC(=O)C(=O)Nc1nc(-c2ccccc2)c(CC)s1 please. inactive

Tell me the assay call for CNC(=S)N1N=C(c2ccccc2)CC1c1ccc(Br)cc1 (stereo unspecified) please. active

Tell me the assay call for COc1cccc(N(CC(=O)N2CCc3ccccc3C2)S(C)(=O)=O)c1 please. inactive

Tell me the assay call for COc1ccc(OC)c(NC(=O)CN2CCN(C(=O)c3ccco3)CC2)c1 please. inactive

Tell me the assay call for O=C(CNC(=O)OCc1ccccc1)Oc1cc2oc(=O)cc(-c3ccccc3)c2cc1Cl please. active

Tell me the assay call for Cc1ccc(S(=O)(=O)N(CC(=O)N2CCc3ccccc3C2)c2cccc(Cl)c2)cc1 please. active

Tell me the assay call for O=C1c2cccc3cccc(c23)N1CN1CCN(c2ccccn2)CC1 please. active

Tell me the assay call for S=C(NCc1ccc(Cl)cc1)NC12CC3CC(CC(C3)C1)C2 please. active

* * *

experiment: growth inhibition of yeast control strain, primary screen, counter-screen for post-Golgi transport modulator project (AID 738); details: efflux-deficient yeast background strain, growth absorbance A615, 16 h; at 10 µM; hits give high values
In all, about 98,000 compounds went through this assay and about 4,900 (5%) were called active. The list comes from a sample in which actives are over-represented; it also holds close analogues and randomly drawn compounds.
readoutKind: inhibition (%)
Your answer is read as %, so omit the unit and give the number.

Example entries and their recorded answers appear below.
compound	inhibition [%]
C=CCn1c(C)cc(C(=O)CN2C(=O)c3ccccc3C2=O)c1C	11.4
Cc1ccc(NS(=O)(=O)c2c(C)[nH]c(=O)[nH]c2=O)cc1C	11.7
CC(CNc1ccc([N+](=O)[O-])cc1)NC(=O)c1ccccc1Br (stereo not given)	1.54
Cc1ccc2c(c1)-c1c(ssc1=S)C(C)(C)N2C(=O)CN1C(=O)c2ccccc2C1=O	60.3
CCCOc1ccc(C2c3c(oc4cc(C)c(C)cc4c3=O)C(=O)N2CCCN2CCOCC2)cc1 (stereo not given)	42.7

Note to self: inhibition recorded for COC(=O)Nc1c(C)n(C)n(-c2ccccc2)c1=O was 6.08

Note to self: inhibition recorded for Cc1c(NC(=O)c2cc(-c3ccc(Cl)s3)nc3ccccc23)c(=O)n(-c2ccccc2)n1C was 44.6

Note to self: inhibition recorded for COc1ccccc1-n1nnnc1S(=O)(=O)Cc1ccc(Cl)cc1 was 32.4

Note to self: inhibition recorded for O=C(c1ccccc1)C(Cn1cncn1)C(Sc1ccccc1)c1ccccc1 (stereo not given) was 26.1

Note to self: inhibition recorded for COc1ccccc1N1CCN(C(=O)CN(Cc2ccc(Cl)cc2)S(C)(=O)=O)CC1 was 1.33

Note to self: inhibition recorded for COc1ccc(C2CC(c3ccccc3)Nc3ncnn32)cc1 (stereo not given) was 6.21

Note to self: inhibition recorded for COCCN1C(=O)c2oc3c(C)cc(C)cc3c(=O)c2C1c1cccc(O)c1 (stereo not given) was 4.63

Note to self: inhibition recorded for Cc1cccc(N2CCN(C(=O)CN(C)S(=O)(=O)c3ccc4c(c3)CCC(=O)N4)CC2)c1C was 6.36

Note to self: inhibition recorded for CCn1c(O)c2ccc(C(=O)N=NC(=O)c3cccnc3)cc2c1O was 1.24

Note to self: inhibition recorded for CCOC(=O)/C(=C\c1ccc([N+](=O)[O-])cc1)C(=O)c1cc(C(C)=O)c(Nc2ccccc2)s1 was 92

Note to self: inhibition recorded for CCOC(=O)C(=CNc1cccc(C)n1)C(=O)OCC was -2.27

Note to self: inhibition recorded for CC1CCN(c2nc3c(c(=O)[nH]c(=O)n3C)n2CCCc2ccccc2)CC1 was 30.6

Note to self: inhibition recorded for O=C(CSc1nc2ncccc2[nH]1)Nc1ccc2c(c1)OCCO2 was 0.61

Note to self: inhibition recorded for CCS(=O)(=O)n1nc(-c2ccc(OC)cc2)nc1SC was 9.73

Note to self: inhibition recorded for O=C(Nc1sc2c(c1-c1nc3ccccc3[nH]1)CCCC2)C1CC1 was 3.43

Note to self: inhibition recorded for C=CCN(CC=C)C(=O)CN1C(=O)c2ccccc2C1=O was 3.29

Note to self: inhibition recorded for CCOC(=O)/C(C#N)=C/c1ccc(OCC(=O)Nc2ccccc2)c(OC)c1 was 2.95

Note to self: inhibition recorded for COCCOC(=O)C1=C(C)NC(=O)CC1c1cc2c(cc1Br)OCO2 (stereo not given) was -3.67

Note to self: inhibition recorded for CC(C)OC(=O)CN1C(=O)c2ccccc2C1=O was 7.83

* * *

test: growth inhibition of yeast control strain, primary screen, counter-screen for post-Golgi transport modulator project (AID 738); settings: efflux-deficient yeast background strain, growth absorbance A615, 16 h; at 10 µM; hits give high values
Screen size: about 98,000 compounds; about 4,900 (5%) were called active. This excerpt belongs to a sample that is enriched for actives.
readoutKind: inhibition (%)
Your answer is read as %, so omit the unit and give the number.

Example entries and their recorded answers appear below.
compound	inhibition (%)
CCc1ccccc1N(CC(=O)N1CCN(c2ccccc2F)CC1)S(C)(=O)=O	3.45
Clc1ccc2c(c1)C1=C(C(c3ccncc3)O2)C(c2ccc(Br)cc2)n2ncnc2N1 (stereo not given)	44.5
CCOC(=O)N1CCN(C(=O)c2ccc(CN(c3ccc(C)c(C)c3)S(C)(=O)=O)cc2)CC1	3.07
O=C(CCS(=O)(=O)c1cccc2nsnc12)N1CCN(c2ccccc2F)CC1	30.8
CC(C)c1cc(C(N)=O)c(NC(=O)c2cccc(COc3ccc(Br)cc3)c2)s1	15.8

Note to self: inhibition recorded for Clc1ccc(-n2nnnc2CN2CCCCC2)cc1Cl was -0.16

Note to self: inhibition recorded for CCCCn1c(=S)[nH]c2cc(S(=O)(=O)N3CCCCC3)ccc21 was 6.51

Note to self: inhibition recorded for O=C(C(NS(=O)(=O)c1cccc2nsnc12)c1ccccc1)N1CCN(c2ccccc2)CC1 (stereo not given) was 2.02

Note to self: inhibition recorded for CCOC(=O)N1CCN(C(=O)c2ccc(S(=O)(=O)c3ccc(C)cc3)c(NC(C)=O)c2)CC1 was 7.81

Note to self: inhibition recorded for COC(=O)C1=C(C)Nc2ncnn2C1c1cccnc1 (stereo not given) was 15

* * *

assay: growth inhibition of yeast control strain, primary screen, counter-screen for post-Golgi transport modulator project (AID 738); details: efflux-deficient yeast background strain, growth absorbance A615, 16 h; at 10 µM
Screen size: about 98,000 compounds; about 4,900 (5%) were called active. Cut-off read from the data, not from the text of the source: active = inhibition above about 30%; inactive = the rest. What follows is part of a selection rich in actives, with near analogues and random picks from the rest.
Allowed answers: active, inactive

Sample answers from the record:
molecule	answerLabel
O=C(CCn1c(=O)[nH]c2ccccc2c1=O)NCCCN1CCN(c2cccc(Cl)c2)CC1	inactive
O=C(Cc1ccc(-n2c(=O)[nH]c3ccccc3c2=O)cc1)N1CCN(c2cccc(Cl)c2)CC1	active

Tell me the assay call for CCOC(=O)N1CCN(C(=O)Cc2ccc(-n3c(=S)[nH]c4ccccc4c3=O)cc2)CC1 please. inactive

Tell me the assay call for CC(Oc1ccc(-c2ccccc2)c(F)c1)c1ccn(S(=O)(=O)c2cccc3ccccc23)n1 (stereo not given) please. inactive

Tell me the assay call for N#C/C(=C(/O)Cc1cccc2ccccc12)c1nc2ccccc2s1 please. inactive

Tell me the assay call for CCOc1c2ccc(C(=O)NCc3ccc4c(c3)OCO4)cc2nn1C please. inactive

Tell me the assay call for CC(=O)c1ccc(Cc2ncc(C(F)(F)F)cc2Cl)s1 please. inactive

* * *

test: growth inhibition of yeast control strain, primary screen, counter-screen for post-Golgi transport modulator project (AID 738); details: efflux-deficient yeast background strain, growth absorbance A615, 16 h; at 10 µM; hits give high values
The whole screen tested about 98,000 compounds, of which about 4,900 (5%) were called active. This is one part of a sample in which actives are shown more often than they occur.
Catalogue of molecules with associated inhibition
Your answer is read as %, so omit the unit and give the number.

Note to self: inhibition recorded for CCOC(=O)Cc1csc(NC(=O)CSc2nc(C)cc(=O)[nH]2)n1 was 3.73

Note to self: inhibition recorded for CCOC(=O)c1c(-c2ccc(C)cc2C)csc1NC(=O)CSc1nnnn1C was 66.1

Note to self: inhibition recorded for COCc1cc(C)nc2sc3c(=O)n(-c4cccc5ccccc45)nnc3c12 was 21.1

Note to self: inhibition recorded for O=C(O)CSCNC(=O)CC12CC3CC(CC(C3)C1)C2 was 0.28

Note to self: inhibition recorded for CCOc1ccc(N=C2NC(=O)S/C2=C\c2ccc(O)cc2)cc1 was 41.5
